These measurements were taken from patent US10517889B2.

test system: human SMAD7 mRNA; assay: Dose-dependent inhibition of human SMAD7 mRNA expression in Hep3B cells (Example 3, Study 1 and 2); format: cell-based; conditions: 740 nM, electroporation, approximately 16 hours, Study 2, relative to untreated control cells
Strand notation (5' to 3'): a small letter for the sugar, then the base; units joined by * are phosphorothioate-linked, units joined directly phosphodiester-linked; [ ] holds rarer units or linkages, { } end groups; capitals alone tell only the bases. k = constrained ethyl (cEt); [5mC] = 5-methylcytosine; d = 2'-deoxy (DNA)
Given measured % inhibition of SMAD7 mRNA expression, output condition met if it is greater than or equal to 10% and condition not met if not.

1) 799759 (antisense kA*k[5mC]*k[5mC]*dA*dT*dA*dT*d[5mC]*dA*d[5mC]*dT*d[5mC]*d[5mC]*kT*kT*k[5mC]) [compound 799759] ... condition met
2) 799369 (antisense kA*k[5mC]*kT*d[5mC]*dA*d[5mC]*dT*dA*dA*dG*dT*d[5mC]*dT*k[5mC]*k[5mC]*kG) [compound 799369] ... condition not met
3) 799596 (kA*k[5mC]*kT*d[5mC]*dT*dG*dA*dA*d[5mC]*dG*dG*dA*dA*kA*kG*kA; antisense) [compound 799596] ... condition met
4) 799607 (k[5mC]*k[5mC]*kA*dT*dT*dT*dA*d[5mC]*dA*dA*dA*dA*d[5mC]*kT*k[5mC]*kT; antisense) [compound 799607] ... condition not met
5) 799544 (kT*kT*k[5mC]*dA*dA*d[5mC]*dA*dA*dG*dT*dT*d[5mC]*d[5mC]*k[5mC]*kT*kA; antisense) [compound 799544] ... condition met
6) 830157 (antisense kG*kA*kA*d[5mC]*dT*dG*dT*dG*d[5mC]*d[5mC]*dT*d[5mC]*dA*kG*k[5mC]*kA) [compound 830157] ... condition met
